This section presents variants with their documented self-cleavage values.
B1: HDV Ribozyme (parent)
chain: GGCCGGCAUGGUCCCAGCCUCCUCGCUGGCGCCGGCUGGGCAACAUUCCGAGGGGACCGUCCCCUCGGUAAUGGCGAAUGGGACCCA

variants of: B1; test: self-cleavage, relative activity (ratio to wild type); higher = more cleavage; co-transcriptional
Parameter measured: self-cleavage

1) C21A G81C :: 0.0923
2) G17U A43C :: 0.203
3) G25C G67C :: 0.0415
4) A45G C48U :: 0.978
5) C3U C4G :: 0
6) G68C C85G :: 0.733
7) C19A G28C :: 0.0462
8) U69C C86U :: 0.727
9) C30A A83C :: 0.0811
10) C21A C24U :: 0.0739
11) C19A G52A :: 0.0863
12) G2A G29C :: 0.0292
13) A45G A87C :: 1.11
14) U46G A70U :: 0.997
15) G35U U37G :: 0.095
16) U12A U47G :: 0.262
17) U12A A77C :: 0.0755
18) U27C C58U :: 0.539
19) A16U G82C :: 0.256
20) A16G A77U :: 0.266
21) G11C U65G :: 0
22) C44G G74U :: 0.318
